Cited source for all entries: patent US20260070987A1

Exercise: state measured Kd for each of the binders provided.
Measured on: equine FcRn (large alpha subunit p51) / equine beta-2-microglobulin complex, biotinylated (equine) (UniProt P30441)
Test: SPR (Biacore), pH 6
Numbers only, in nM.

Binder	Units text	Kd
equine IgG1 G426M (antibody, part only; not given: variable domains, not shown: another chain or arm of the molecule) constant: ASTTAPKVFALAPGCGTTSDSTVALGCLVSGYFPEPVKVSWNSGSLTSGVHTFPSVLQSSGFYSLSSMVTVPASTWTSETYICNVVHAASNFKVDKRIEPIPDNHQKVCDMSKCPKCPAPELLGGPSVFIFPPNPKDTLMITRTPEVTCVVVDVSQENPDVKFNWYMDGVEVRTATTRPKEEQFNSTYRVVSVLRIQHQDWLSGKEFKCKVNNQALPQPIERTITKTKGRSQEPQVYVLAPHPDELSKSKVSVTCLVKDFYPPEINIEWQSNGQPELETKYSTTQAQQDSDGSYFLYSKLSVDRNRWQQGTTFTCMVMHEALHNHYTQKNVSKNPGK	nM	9.09

From here, focus on the item given below.
Supply recorded Kd for equine IgG1 Y436N (antibody, part only; not given: variable domains, not shown: another chain or arm of the molecule) constant: ASTTAPKVFALAPGCGTTSDSTVALGCLVSGYFPEPVKVSWNSGSLTSGVHTFPSVLQSSGFYSLSSMVTVPASTWTSETYICNVVHAASNFKVDKRIEPIPDNHQKVCDMSKCPKCPAPELLGGPSVFIFPPNPKDTLMITRTPEVTCVVVDVSQENPDVKFNWYMDGVEVRTATTRPKEEQFNSTYRVVSVLRIQHQDWLSGKEFKCKVNNQALPQPIERTITKTKGRSQEPQVYVLAPHPDELSKSKVSVTCLVKDFYPPEINIEWQSNGQPELETKYSTTQAQQDSDGSYFLYSKLSVDRNRWQQGTTFTCGVMHEALHNHNTQKNVSKNPGK here. 23.1
